System: HGGX39 (paediatric high-grade glioma line)
Experiment: EC50 (inflection of fitted growth-inhibition curve) (log10 M)
Quantity Measured: EC50 (log10 M)
Kindly provide the number alone.

Read the entry Cc1ccc(C(=O)Nc2ccc(Oc3cc4cnn(C)c4cc3-c3cn[nH]c3)c(F)c2)c(=O)n1-c1ccc(F)cc1 and write its reported EC50 (log10 M).
-5.27

Read the entry COc1cccc2c1C(=O)c1c(O)c3c(c(O)c1C2=O)C[C@@](O)(C(=O)CO)C[C@@H]3O[C@H]1C[C@H](N)[C@H](O)[C@H](C)O1 [DOXORUBICIN] and write its reported EC50 (log10 M).
-5.68

Read the entry Clc1ccc(COC(Cn2ccnc2)c2ccc(Cl)cc2Cl)c(Cl)c1 (stereo not drawn) [MICONAZOLE] and write its reported EC50 (log10 M).
-4.94

Read the entry CCN(CC)CCOc1ccc(C(=C(Cl)c2ccccc2)c2ccccc2)cc1 [CLOMIPHENE] and write its reported EC50 (log10 M).
-5.71

Read the entry N=C(N)c1ccc(N=NNc2ccc(C(=N)N)cc2)cc1 [BERENIL] and write its reported EC50 (log10 M).
-5.18

Read the entry COc1cc2c(cc1O)CC[C@@H]1[C@@H]2CC[C@]2(C)[C@@H](O)CC[C@@H]12 [2-METHOXYESTRADIOL] and write its reported EC50 (log10 M).
-4.89

Read the entry N#CN=C(NCCCCCCOc1ccc(Cl)cc1)Nc1ccncc1 [GMX-1778] and write its reported EC50 (log10 M).
-7.85

Read the entry N=C(N)c1ccc(OCCCCCOc2ccc(C(=N)N)cc2)cc1 [PENTAMIDINE] and write its reported EC50 (log10 M).
-6.05

---

Tested on: SUDIPGIV (diffuse intrinsic pontine glioma line)
Experiment: area under dose-response curve of % growth inhibition (log2 RLU vs DMSO / staurosporine), 1e-11 to 1e-4 M (% x log10 M); higher = more growth inhibition
Quantity Measured: area under dose-response curve
Kindly provide the number alone.

Read the entry C[C@@H]1O[C@@H](O[C@H]2C[C@@H](O)[C@]3(CO)[C@H]4[C@H](O)C[C@]5(C)[C@@H](C6=CC(=O)OC6)CC[C@]5(O)[C@@H]4CC[C@]3(O)C2)[C@H](O)[C@H](O)[C@H]1O [OUABAIN] and write its reported area under dose-response curve.
284

Read the entry CCOC(=O)c1ccc(C#Cc2ccc3c(c2)C(C)(C)CCS3)nc1 [TAZAROTENE] and write its reported area under dose-response curve.
45.5

Read the entry CS(=O)(=O)c1ccc(C(=O)Nc2ccc(Cl)c(-c3ccccn3)c2)c(Cl)c1 [VISMODEGIB] and write its reported area under dose-response curve.
6.55

Read the entry COCC1(CO)C(=O)C2CCN1CC2 (stereo unspecified) [APR-246] and write its reported area under dose-response curve.
85.3

Read the entry CO[C@H]1C[C@@H]2CC[C@@H](C)[C@@](O)(O2)C(=O)C(=O)N2CCCC[C@H]2C(=O)O[C@H]([C@H](C)C[C@@H]2CC[C@@H](OCCO)[C@H](OC)C2)CC(=O)[C@H](C)/C=C(\C)[C@@H](O)[C@@H](OC)C(=O)[C@H](C)C[C@H](C)/C=C/C=C/C=C/1C [EVEROLIMUS] and write its reported area under dose-response curve.
97.4

Read the entry CC(C)(C)c1cnc(CSc2cnc(NC(=O)C3CCNCC3)s2)o1 and write its reported area under dose-response curve.
221

---

Hi there, I'd appreciate the recorded area under dose-response curve for every entry that follows.
Test system: DIPGX29 (H3.3 K27M diffuse intrinsic pontine glioma line)
Experiment: area under dose-response curve of % growth inhibition (log2 RLU vs DMSO / staurosporine), 1e-11 to 1e-4 M (% x log10 M); higher = more growth inhibition
Kindly provide the number alone.

Read the entry CC[C@@]1(O)C[C@H](O[C@H]2C[C@H](N(C)C)[C@H](O[C@H]3C[C@H](O)[C@H](O[C@H]4CCC(=O)[C@H](C)O4)[C@H](C)O3)[C@H](C)O2)c2c(cc3c(c2O)C(=O)c2c(O)cccc2C3=O)[C@H]1C(=O)OC and write its reported area under dose-response curve.
96.6

Read the entry O=C(Nc1ccccc1-c1cn2c(CN3CCNCC3)csc2n1)c1cnc2ccccc2n1 and write its reported area under dose-response curve.
110

Read the entry CNC(=O)c1cc(Oc2ccc(NC(=O)Nc3ccc(Cl)c(C(F)(F)F)c3)cc2)ccn1 and write its reported area under dose-response curve.
46.9

Read the entry NCCOc1cc(C(=O)Nc2cc(OCCN)c3ccccc3n2)nc(C(=O)Nc2cc(OCCN)c3ccccc3n2)c1 and write its reported area under dose-response curve.
74

Read the entry CCCCOc1cc(C(=O)OCCN(CC)CC)ccc1N and write its reported area under dose-response curve.
11.5

Read the entry N[C@H]1C[C@@H]1c1ccc(-c2cccc(O)c2)cc1 and write its reported area under dose-response curve.
67.6

Read the entry O=C(O)CNC(=O)c1c(O)c2ccccc2n(Cc2ccccc2)c1=O and write its reported area under dose-response curve.
9.33

---

Hi there, I'd appreciate the recorded EC50 (log10 M) for every entry that follows.
Tested on: HGGX2 (paediatric high-grade glioma line)
Experiment: EC50 (inflection of fitted growth-inhibition curve) (log10 M)
Kindly provide the number alone.

Read the entry Cc1noc2c1-c1ccccc1C(c1ccc(Cl)cc1)=N[C@H]2CC(N)=O and write its reported EC50 (log10 M).
-5.42

Read the entry CC(C)C[C@H](NC(=O)[C@H](CCc1ccccc1)NC(=O)CN1CCOCC1)C(=O)N[C@@H](Cc1ccccc1)C(=O)N[C@@H](CC(C)C)C(=O)[C@@]1(C)CO1 and write its reported EC50 (log10 M).
-7.54

Read the entry Nc1ccccc1NC(=O)c1ccc(CNc2nccc(-c3cccnc3)n2)cc1 and write its reported EC50 (log10 M).
-5.76

---

System: DIPGX29
Experiment: maximal growth inhibition (yFin) relative to DMSO / staurosporine; higher = more efficacious
Quantity Measured: maximal growth inhibition (%)
Kindly answer with a numeric value in %, unit omitted.

Read the entry CCN(CC)CCOc1ccc(C(=C(Cl)c2ccccc2)c2ccccc2)cc1 and write its reported maximal growth inhibition.
77

Read the entry Nc1nccc2c1ncn2[C@@H]1C=C(CO)[C@@H](O)[C@H]1O and write its reported maximal growth inhibition.
21.5

Read the entry COC(=O)[C@]12CCC(C)(C)C[C@H]1[C@H]1C(=O)C=C3[C@@]4(C)C=C(C#N)C(=O)C(C)(C)[C@@H]4CC[C@@]3(C)[C@]1(C)CC2 and write its reported maximal growth inhibition.
87.1

Read the entry CN(C)C/C=C/C(=O)Nc1cc2c(Nc3ccc(F)c(Cl)c3)ncnc2cc1O[C@H]1CCOC1 and write its reported maximal growth inhibition.
91.2

Read the entry Nc1nc2n[nH]nc2c(=O)[nH]1 and write its reported maximal growth inhibition.
38.3

Read the entry CN1CCCN(C(=O)c2cccc(-c3ccc(/C=C4/C(=O)Nc5ccc(Cl)cc54)o3)c2)CC1 and write its reported maximal growth inhibition.
112

Read the entry CCCCc1oc2ccccc2c1C(=O)c1cc(I)c(OCCN(CC)CC)c(I)c1 and write its reported maximal growth inhibition.
80

Read the entry CC[C@H](CC#N)OC(=O)N[C@@H](C)c1cccc(NC(=O)Nc2ccc(-c3cnco3)c(OC)c2)c1 and write its reported maximal growth inhibition.
34.3

Read the entry O=C1COc2c(CCNCCN(C(=O)CCNCCc3ccc(Cl)c(Cl)c3)C3CCCCC3)ccc(O)c2N1 and write its reported maximal growth inhibition.
82.3

Read the entry CCOC(=O)C1=C(C)NC(C)=C(C(=O)OCC)C1c1ccccc1/C=C/C(=O)OC(C)(C)C and write its reported maximal growth inhibition.
87.2

Read the entry CC(=O)N1CCN(c2ccc(OCC3COC(Cn4ccnc4)(c4ccc(Cl)cc4Cl)O3)cc2)CC1 (stereo unspecified) and write its reported maximal growth inhibition.
40.2

Read the entry CCN1CCN(Cc2ccc(Nc3ncc(F)c(-c4cc(F)c5nc(C)n(C(C)C)c5c4)n3)nc2)CC1 and write its reported maximal growth inhibition.
38.4

Read the entry CCN(CC)CCNC(=O)c1c(C)[nH]c(/C=C2\C(=O)Nc3ccc(F)cc32)c1C and write its reported maximal growth inhibition.
103

Read the entry COc1ncc(-c2ccc3nccc(-c4ccnnc4)c3c2)cc1NS(=O)(=O)c1ccc(F)cc1F and write its reported maximal growth inhibition.
105

Read the entry Clc1ccc(NN=C(c2ccccc2)c2ccccn2)nc1 and write its reported maximal growth inhibition.
47.2

Read the entry CCCc1cc(C)[nH]c(=O)c1CNC(=O)c1cc(-c2ccc(N3CCN(C(C)C)CC3)nc2)cc2c1cnn2C(C)C and write its reported maximal growth inhibition.
73.8

---

Hi there, I'd appreciate the recorded maximal growth inhibition for every entry that follows.
System: HGGX42 (H3.3 G34R paediatric high-grade glioma line)
Experiment: maximal growth inhibition (yFin) relative to DMSO / staurosporine; higher = more efficacious
Kindly answer with a numeric value in %, unit omitted.

# assay system HGGX42: give maximal growth inhibition of Cc1ccc(C(=O)Nc2ccc(CN3CCN(C)CC3)c(C(F)(F)F)c2)cc1C#Cc1cnc2cccnn12
99

# assay system HGGX42: give maximal growth inhibition of Cc1c(C2CCN(CCc3ccccc3)CC2)noc1-c1ccc(Cl)cc1
74.2

# assay system HGGX42: give maximal growth inhibition of CCN1CCN(Cc2ccc(Nc3ncc(F)c(-c4cc(F)c5nc(C)n(C(C)C)c5c4)n3)nc2)CC1
30.7

# assay system HGGX42: give maximal growth inhibition of O=C(c1ccccc1)c1ccc2nc(NC(=O)c3csc(C4CCN(c5ncnc6ccsc56)CC4)n3)[nH]c2c1
48.7
